Reported values of AIRE transcriptional activation functional score for individual entries
B1: library; numbered along this chain (parent)
chain: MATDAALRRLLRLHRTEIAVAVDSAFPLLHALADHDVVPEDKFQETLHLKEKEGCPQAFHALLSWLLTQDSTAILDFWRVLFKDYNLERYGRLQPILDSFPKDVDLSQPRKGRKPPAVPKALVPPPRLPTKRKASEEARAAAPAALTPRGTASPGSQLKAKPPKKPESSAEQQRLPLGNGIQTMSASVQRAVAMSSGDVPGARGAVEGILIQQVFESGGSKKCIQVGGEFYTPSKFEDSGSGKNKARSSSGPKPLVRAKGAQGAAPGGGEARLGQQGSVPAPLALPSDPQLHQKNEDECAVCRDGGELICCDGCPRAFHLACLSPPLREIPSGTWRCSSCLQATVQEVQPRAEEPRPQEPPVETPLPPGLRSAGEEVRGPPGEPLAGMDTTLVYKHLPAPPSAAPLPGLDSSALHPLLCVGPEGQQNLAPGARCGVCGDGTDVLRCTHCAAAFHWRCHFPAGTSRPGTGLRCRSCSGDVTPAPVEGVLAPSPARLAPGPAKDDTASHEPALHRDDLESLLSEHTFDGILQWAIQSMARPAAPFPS

Variants of: B1
PROTOCOL SUMMARY: AIRE transcriptional activation functional score (insulin promoter-GFP; nonsense median 0, synonymous median 1) (normalised score); higher = higher AIRE activity (more reporter activation)
CONDITION SUMMARY: with insulin promoter-GFP reporter in HEK293
Enter a number only.

Example entries begin here.
# RESIDUE CHANGE, MEASURED NUMBER
data = [
    ("G486H", 1.27),
    ("V188A", 0.635),
    ("P39G", -0.241),
    ("D4I", 0.179),
    ("P129V", 0.215),
]

(Q) Which AIRE transcriptional activation functional score value is on record for R110N ?
(A) 0.62

(Q) Which AIRE transcriptional activation functional score value is on record for L511G ?
(A) 0.805
